Data provenance is patent US20240294498A1.

# pKi values compiled below
Biological target: FXIIa (Homo sapiens, UniProt P00748)
Sequence (P00748 373-615 limits assumed): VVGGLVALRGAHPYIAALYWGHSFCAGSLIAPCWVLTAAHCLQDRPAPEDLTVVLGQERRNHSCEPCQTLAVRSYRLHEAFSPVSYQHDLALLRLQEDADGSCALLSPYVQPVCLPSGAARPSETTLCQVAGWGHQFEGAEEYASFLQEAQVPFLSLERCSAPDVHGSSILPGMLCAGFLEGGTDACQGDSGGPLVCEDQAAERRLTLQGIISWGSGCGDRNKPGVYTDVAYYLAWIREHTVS
Sequence (P00748 20-372 partner limits assumed): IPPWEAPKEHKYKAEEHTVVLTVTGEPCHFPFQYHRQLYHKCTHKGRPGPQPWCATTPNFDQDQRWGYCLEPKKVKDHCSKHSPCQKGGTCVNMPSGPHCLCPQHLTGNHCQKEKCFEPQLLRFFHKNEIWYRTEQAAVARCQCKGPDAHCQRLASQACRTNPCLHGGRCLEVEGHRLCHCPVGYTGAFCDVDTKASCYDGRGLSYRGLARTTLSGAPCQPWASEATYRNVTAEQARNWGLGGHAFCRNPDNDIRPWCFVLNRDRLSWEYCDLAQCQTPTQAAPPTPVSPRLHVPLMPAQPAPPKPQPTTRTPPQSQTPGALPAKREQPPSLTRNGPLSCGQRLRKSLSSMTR
pKi: −log10 of the molar value.
Parameter measured: pKi

Compound	Parameter measured	Result
COc1ccc(C[C@@H]2C[C@@H](C(=O)NCc3cc4cnccc4[nH]3)N(C(=O)[C@@H]3NCCC[C@@H]3C(=O)N3CCCC3)C2)cc1	pKi	> 6.70
Cc1ccc(C=C2C[C@@H](C(=O)NCc3ccc4c(cnn4C)c3)N(C(=O)[C@@H]3NCCC[C@@H]3C(=O)N3CCCC3)C2)cc1 (single isomer, unassigned) [Example M05843]	pKi	6.10 to 6.70
Cc1ccc(C[C@@H]2C[C@@H](C(=O)NCc3ccc4c(cnn4C)c3)N(C(=O)[C@@H]3NCCC[C@@H]3C(=O)N(C)C3CCN(C4CC4)CC3)C2)cc1	pKi	> 6.70
Cc1ccc(C[C@@H]2C[C@@H](C(=O)NCc3ccc4c(cnn4C)c3)N(C(=O)[C@@H]3NCCC[C@@H]3C(=O)N(C)CCN(C)C)C2)cc1 (single isomer, unassigned)	pKi	> 6.70
Cc1ccc(C[C@@H]2C[C@@H](C(=O)NCc3ccc4c(cnn4C)c3)N(C(=O)[C@@H]3NCCC[C@@H]3C(=O)N3CCC4(CC4)C3)C2)cc1	pKi	> 6.70

###

Biological target: FXIIa (Homo sapiens, UniProt P00748)
Sequence (P00748 373-615 limits assumed): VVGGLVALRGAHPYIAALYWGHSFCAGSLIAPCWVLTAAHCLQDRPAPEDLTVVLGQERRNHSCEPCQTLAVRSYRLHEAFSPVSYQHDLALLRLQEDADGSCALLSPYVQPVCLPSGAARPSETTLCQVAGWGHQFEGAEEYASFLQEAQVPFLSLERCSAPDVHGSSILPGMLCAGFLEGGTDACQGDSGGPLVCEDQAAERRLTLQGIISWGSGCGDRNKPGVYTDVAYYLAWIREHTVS
Sequence (P00748 20-372 partner limits assumed): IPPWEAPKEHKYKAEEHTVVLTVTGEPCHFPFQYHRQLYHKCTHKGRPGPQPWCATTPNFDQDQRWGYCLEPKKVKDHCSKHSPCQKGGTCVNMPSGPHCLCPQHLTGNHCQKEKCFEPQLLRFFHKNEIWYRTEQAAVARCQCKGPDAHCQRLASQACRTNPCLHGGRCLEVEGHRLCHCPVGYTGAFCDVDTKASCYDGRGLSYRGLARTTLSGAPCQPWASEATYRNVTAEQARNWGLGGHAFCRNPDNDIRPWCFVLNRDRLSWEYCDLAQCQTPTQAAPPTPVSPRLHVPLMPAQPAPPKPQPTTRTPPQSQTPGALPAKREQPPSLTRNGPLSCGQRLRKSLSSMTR
# Ki values compiled below
Parameter measured: Ki

Compound	Parameter measured	Result
Cc1ccc(C[C@@H]2C[C@@H](C(=O)NCc3ccc4c(cnn4C)c3)N(C(=O)[C@@H]3NCCC[C@@H]3C(=O)N3CC[C@@H](F)C3)C2)cc1 [Example M05785]	Ki	< 200 nM
Cc1ccc(C[C@@H]2C[C@@H](C(=O)NCc3ccc4c(cnn4C)c3)N(C(=O)[C@@H]3NCCC[C@@H]3C(=O)N3CCNCC3)C2)cc1 [Example M05754]	Ki	200 to 800 nM
Cc1ccc(C[C@@H]2C[C@@H](C(=O)NCc3ccc4c(cnn4C)c3)N(C(=O)[C@@H]3NCCC[C@@H]3C(=O)N3CC[C@@H](N(C)C)C3)C2)cc1 [Example M06010]	Ki	200 to 800 nM
CCN1CCC[C@H](C(=O)N2CCCC2)[C@@H]1C(=O)N1C[C@H](Cc2ccc(C)cc2)C[C@H]1C(=O)NCc1ccc2c(cnn2C)c1 [Example M05772]	Ki	200 to 800 nM
Cc1ccc(C[C@@H]2C[C@@H](C(=O)NCc3ccc4c(cnn4C)c3)N(C(=O)[C@@H]3NCCC[C@@H]3C(=O)N3CCC(F)(F)C3)C2)cc1 [Example M05787]	Ki	200 to 800 nM
